- Test target: Cathepsin K (Homo sapiens)
- Sequence (P43235 whole entry): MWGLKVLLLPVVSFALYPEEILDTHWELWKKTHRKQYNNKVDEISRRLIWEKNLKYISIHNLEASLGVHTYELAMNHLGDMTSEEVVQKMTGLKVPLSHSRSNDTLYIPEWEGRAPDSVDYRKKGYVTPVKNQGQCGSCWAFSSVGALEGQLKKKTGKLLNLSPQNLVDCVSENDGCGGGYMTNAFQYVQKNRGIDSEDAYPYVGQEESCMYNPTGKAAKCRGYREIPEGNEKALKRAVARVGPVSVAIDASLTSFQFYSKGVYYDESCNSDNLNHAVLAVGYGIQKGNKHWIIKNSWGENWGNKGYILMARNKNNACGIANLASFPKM
Property name: pKi
Scale: negative log10 of molar concentration, which is what pKi denotes.

Query: I have this compound here, "CC(C)C[C@H](NC(=O)c1cc2cc(OCCN3CCOCC3)ccc2o1)C(=O)N[C@H]1CCCN(C(=O)Cc2cccc(-c3ccccn3)c2)CC1=O" , and I need its recorded pKi.
Result: 10.00

###

- Test target: UniProtKB P25774
- Experiment summary: Inhibition of human recombinant cathepsin S using Ac-KQLR-AMC as substrate by fluorescence assay
pIC50: −log10 of the molar value.
Property name: pIC50

[
  {
    "Compound structure string": "C[C@@H]1CC[C@H](NC(=O)[C@H](CC2CCCCC2)NC(=O)c2ccco2)C(=O)CN1S(=O)(=O)c1ccccn1",
    "pIC50": 9.30
  }
]

[1] C[C@@H]1CC[C@H](NC(=O)[C@H](CCC2CCCC2)NC(=O)N2CCOCC2)C(=O)CN1S(=O)(=O)c1ccccn1
[2] CC(C)C[C@H](NC(=O)c1ccco1)C(=O)N[C@H]1CC[C@@H](C)N(S(=O)(=O)c2ccccn2)CC1=O
[3] CC(C)C[C@H](NC(=O)c1ccco1)C(=O)N[C@H]1CC[C@@H](C)N(C(=O)c2ccccn2)CC1=O
Query: Sort by pIC50, descending. Your task in answering is to list the labels in the requested order.
Result: 1, 2, 3

###

- Test target: Cathepsin K (Homo sapiens)
- Sequence (P43235 whole entry): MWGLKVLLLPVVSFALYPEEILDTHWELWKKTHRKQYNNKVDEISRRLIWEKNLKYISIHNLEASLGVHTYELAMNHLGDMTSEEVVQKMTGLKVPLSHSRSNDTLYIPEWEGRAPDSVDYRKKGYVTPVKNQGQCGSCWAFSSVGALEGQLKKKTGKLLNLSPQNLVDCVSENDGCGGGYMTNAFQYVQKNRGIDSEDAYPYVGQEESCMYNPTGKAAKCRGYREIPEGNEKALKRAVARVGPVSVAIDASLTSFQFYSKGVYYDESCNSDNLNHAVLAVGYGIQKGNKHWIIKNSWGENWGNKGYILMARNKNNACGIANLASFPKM
- Experiment summary: Inhibition of human recombinant cathepsin K using z-LR-AFC as substrate by fluorescence assay
Property name: IC50 (nM)

[1] CC(C)C[C@H](NC(=O)c1ccco1)C(=O)N[C@H]1CC[C@@H](C)N(C(=O)c2ccccn2)CC1=O
[2] CC(C)C[C@H](NC(=O)c1ccco1)C(=O)N[C@H]1CC[C@@H](C)N(S(=O)(=O)c2ccccn2)CC1=O
[3] CC1CCC(C[C@H](NC(=O)c2ccco2)C(=O)N[C@H]2CC[C@@H](C)N(S(=O)(=O)c3ccccn3)CC2=O)CC1 (some centres not stated)
Query: With regard to IC50, arrange the entries in ascending order, please. Your task in answering is to list the labels in the requested order.
Result: 2, 1, 3

###

- Test target: Procathepsin L (Homo sapiens)
- Sequence (P07711 whole entry): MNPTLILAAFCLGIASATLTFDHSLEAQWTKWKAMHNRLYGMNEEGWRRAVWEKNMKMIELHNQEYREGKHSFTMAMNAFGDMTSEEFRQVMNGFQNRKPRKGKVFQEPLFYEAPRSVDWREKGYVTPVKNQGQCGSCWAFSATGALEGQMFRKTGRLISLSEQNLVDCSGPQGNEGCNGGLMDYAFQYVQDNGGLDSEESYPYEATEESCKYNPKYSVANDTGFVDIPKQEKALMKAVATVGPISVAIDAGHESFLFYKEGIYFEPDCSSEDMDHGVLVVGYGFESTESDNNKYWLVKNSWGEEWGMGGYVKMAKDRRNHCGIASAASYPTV
- Experiment summary: Inhibition of human recombinant cathepsin L using Z-LR-AMC as substrate by fluorescence assay
Property name: IC50 (nM)

[
  {
    "Compound structure string": "C[C@@H]1CC[C@H](NC(=O)[C@H](CCC2CCCC2)NC(=O)N2CCOCC2)C(=O)CN1S(=O)(=O)c1ccccn1",
    "IC50 (nM)": 10.8
  },
  {
    "Compound structure string": "C[C@@H]1CC[C@H](NC(=O)[C@H](CCC2CCCC2)NC(=O)c2ccco2)C(=O)CN1S(=O)(=O)c1ccccn1",
    "IC50 (nM)": 10.7
  },
  {
    "Compound structure string": "C[C@@H]1CC[C@H](NC(=O)[C@H](CC(C)(C)C)NC(=O)c2ccco2)C(=O)CN1S(=O)(=O)c1ccccn1",
    "IC50 (nM)": 11.5
  },
  {
    "Compound structure string": "CC(C)C[C@H](NC(=O)c1ccco1)C(=O)N[C@H]1CC[C@@H](C)N(C(=O)c2ccccn2)CC1=O",
    "IC50 (nM)": 10
  }
]

###

Catalogue of IC50 readings, one per entry.
- Test target: Cathepsin S (Homo sapiens)
- Sequence (P25774 whole entry): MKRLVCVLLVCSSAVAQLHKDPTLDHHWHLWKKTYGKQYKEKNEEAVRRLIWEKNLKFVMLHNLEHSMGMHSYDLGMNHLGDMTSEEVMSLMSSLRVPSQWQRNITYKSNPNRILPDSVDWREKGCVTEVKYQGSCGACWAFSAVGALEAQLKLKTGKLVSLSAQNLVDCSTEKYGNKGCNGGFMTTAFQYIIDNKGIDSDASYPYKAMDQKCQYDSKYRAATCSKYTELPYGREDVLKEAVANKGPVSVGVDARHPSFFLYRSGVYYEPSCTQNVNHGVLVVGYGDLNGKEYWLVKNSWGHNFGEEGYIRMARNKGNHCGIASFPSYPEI
- Experiment summary: Inhibition of human recombinant cathepsin S using Ac-KQLR-AMC as substrate by fluorescence assay

[
  {
    "Compound structure string": "C[C@@H]1CC[C@H](NC(=O)[C@H](CC2(C)CCCCC2)NC(=O)c2ccco2)C(=O)CN1S(=O)(=O)c1ccccn1",
    "IC50": "< 0.4 nM"
  }
]

Query: I have this compound here, "C[C@@H]1CC[C@H](NC(=O)[C@H](CC2(C)CCCCC2)NC(=O)N2CCOCC2)C(=O)CN1S(=O)(=O)c1ccccn1" , and I need its recorded IC50.
Result: < 0.4 nM

Query: I have this compound here, "C[C@@H]1CC[C@H](NC(=O)[C@H](CCC2CCCC2)NC(=O)c2ccco2)C(=O)CN1S(=O)(=O)c1ccccn1" , and I need its recorded IC50.
Result: 1.9 nM

Query: I have this compound here, "C[C@@H]1CC[C@H](NC(=O)[C@H](CC2(C)CCCC2)NC(=O)c2ccco2)C(=O)CN1S(=O)(=O)c1ccccn1" , and I need its recorded IC50.
Result: < 0.4 nM

###

- Test target: UniProt P43235
- Experiment summary: Inhibition of human recombinant cathepsin K using z-LR-AFC as substrate by fluorescence assay
pIC50: −log10 of the molar value.
Property name: pIC50

[a] C[C@@H]1CC[C@H](NC(=O)[C@H](CC2=CCCC2)NC(=O)c2ccco2)C(=O)CN1S(=O)(=O)c1ccccn1
[b] C[C@@H]1CC[C@H](NC(=O)[C@@H](CC2(C)CCCC2)NC(=O)c2ccco2)C(=O)CN1S(=O)(=O)c1ccccn1
[c] C[C@@H]1CC[C@H](NC(=O)[C@H](CC2CCCC2)NC(=O)c2ccco2)C(=O)CN1S(=O)(=O)c1ccccn1
[d] C[C@@H]1CC[C@H](NC(=O)[C@H](CC23CCC(CC2)C3(C)C)NC(=O)N2CCOCC2)C(=O)CN1S(=O)(=O)c1ccccn1
Query: Arrange these molecules by their pIC50, starting with the largest number. Your task in answering is to list the labels in the requested order.
Result: a, c, d, b
